- System: time-mated Wistar rats
- Test Summary: in vivo maternal and prenatal developmental toxicity screening study (OECD 414 principles)
- Applied Conditions: rat, gavage GD 6–19, 600 mg/kg
Reported Property: Late resorption (%)
Value expressed in %; do not type the unit.

In [3]: df
Out[3]:
                                   compound  reading
0  CC1CC(C)OC(Cn2cncn2)(c2ccc(Oc3ccc(Cl)cc3)cc2Cl)O1 (stereo not shown)      1.0

Query: Can you share its Late resorption (%)? I mean this compound: OC(c1cccnc1)c1c(-c2ccc(F)cc2F)csc1-c1ccc(F)cc1F (stereo not shown)
Response: 0.0

Query: Field entry: CC(c1nc(-c2ccc(C#N)cc2)cs1)C(O)(Cn1cncn1)c1ccc(F)cc1 (stereo not shown)
Response: 0.8

Query: Field entry: OC(c1cccnc1)c1c(-c2ccc(F)cc2F)noc1-c1ccc(Cl)cc1F (stereo not shown)
Response: 0.8
